- targetDesc: UniProt P13631
- Sequence (P13631 185-419 limits assumed): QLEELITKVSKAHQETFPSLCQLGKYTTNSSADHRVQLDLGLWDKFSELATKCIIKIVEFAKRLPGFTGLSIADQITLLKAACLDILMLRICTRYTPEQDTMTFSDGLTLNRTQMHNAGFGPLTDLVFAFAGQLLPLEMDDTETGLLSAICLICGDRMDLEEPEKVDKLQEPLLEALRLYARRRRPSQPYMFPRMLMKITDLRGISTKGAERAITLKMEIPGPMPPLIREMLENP
- assayName: chimeric receptor transactivation assay (agonist-like activity)
- Format: cell-based
- Design: RAR EC50 (nM) (% Efficiency) γ
- recordedConditions: read-out: RAR EC50 (nM) (% Efficiency) γ
EC50 by entry:

Example entries begin here.
Cc1ccc(C2=CC(C)(C)c3cc(C(/C=C/c4ccc(C(=O)O)cc4F)=N\O)ccc32)cc1 [Compound 18b]	> 10000 nM
Cc1ccc(C2=CCC(C)(C)c3cc(C(/C=C/c4ccc(C(=O)O)cc4)=NO)ccc32)cc1 (racemic)	> 10000 nM
Cc1ccc(C2=CCC(C)(C)c3cc(C(/C=C/c4ccc(C(=O)O)cc4)=N/O)ccc32)cc1	> 10000 nM
Cc1ccc(C2=CC(C)(C)c3cc(C(/C=C/c4ccc(C(=O)O)cc4)=N/O)ccc32)cc1 [Compound 16a]	> 10000 nM

Now, please, on to the next compound.
Request: For `Cc1ccc(C2=CCC(C)(C)c3cc(C(/C=C/c4ccc(C(=O)O)cc4F)=N\O)ccc32)cc1` , write its EC50.
Response: > 10000 nM
